- experiment.summary: Toxicity liver stage against HepG2, at 10uM
- Type: cell-based
- Parameters: test concentration 10 uM, cell line HepG2-A16-CD81EGFP
- protocol.conditions: human, HepG2-A16-CD81EGFP cells; read-out: INHIBITION
recorded.endpoint: cytotoxicity at 10 µM (%)

>>> df
                                   molecule  reading_unit  assay_value
0            CC1(C(=O)NCCc2ccc(F)cc2)CCOCC1             %         5.42
1  Cc1ccc(C(=O)NC2CCN(Cc3cccc4c3OCCO4)CC2)s1             %         -4.8
2  CC(C)(C)OC(=O)N1CCC(C(=O)NCc2ccccc2)C1 (stereo unspecified)             %         17.7
3  CN(C)C(=O)NCC1CC2(CO1)CN(c1nncs1)C2 (stereo unspecified)             %        -96.3
4  CCN1C(=O)[C@]2(CC[C@@H]3CN(C(=O)NCC(C)C)C[C@@H]32)N=C1C             %         9.16
5        O=C(Cc1ccccc1Cl)Nc1cc(N2CCCC2)ncn1             %        -2.46

The values you see were collected from ChEMBL document CHEMBL4513216.
